All figures here come from paper PMC3817407.

Catalogue of fold repression readings, one per entry.
Target Of Assay: T1, ECF14_3200
T1 chain: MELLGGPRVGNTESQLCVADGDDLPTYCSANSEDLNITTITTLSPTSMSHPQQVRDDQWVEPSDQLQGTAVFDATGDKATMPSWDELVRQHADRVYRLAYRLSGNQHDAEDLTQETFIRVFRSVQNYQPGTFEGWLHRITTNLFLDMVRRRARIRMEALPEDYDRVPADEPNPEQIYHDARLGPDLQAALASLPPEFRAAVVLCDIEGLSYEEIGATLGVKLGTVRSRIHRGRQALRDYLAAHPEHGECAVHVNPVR
Observable: fold repression

>>> meas_value("AS25_1643_cl43 (protein) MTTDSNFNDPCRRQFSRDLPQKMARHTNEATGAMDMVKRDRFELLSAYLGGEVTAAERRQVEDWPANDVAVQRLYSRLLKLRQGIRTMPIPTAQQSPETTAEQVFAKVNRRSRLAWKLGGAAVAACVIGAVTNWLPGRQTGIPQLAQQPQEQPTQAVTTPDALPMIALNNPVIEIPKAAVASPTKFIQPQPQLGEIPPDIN")
5.41
>>> meas_value("AS27_1331 (protein) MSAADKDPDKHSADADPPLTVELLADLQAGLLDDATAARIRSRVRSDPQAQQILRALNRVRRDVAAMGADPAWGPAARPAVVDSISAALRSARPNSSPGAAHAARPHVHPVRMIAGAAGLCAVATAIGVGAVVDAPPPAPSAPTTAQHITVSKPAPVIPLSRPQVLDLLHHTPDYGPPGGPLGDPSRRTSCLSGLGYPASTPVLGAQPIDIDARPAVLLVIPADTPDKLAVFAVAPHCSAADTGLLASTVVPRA")
2.68
>>> meas_value("AS16_3622 (protein) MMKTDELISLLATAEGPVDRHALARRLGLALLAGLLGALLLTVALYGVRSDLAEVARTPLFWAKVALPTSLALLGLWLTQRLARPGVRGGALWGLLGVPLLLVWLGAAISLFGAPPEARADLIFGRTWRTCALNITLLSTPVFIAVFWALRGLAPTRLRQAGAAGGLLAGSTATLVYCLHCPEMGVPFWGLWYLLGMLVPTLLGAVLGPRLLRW")
8.73
